study target: BTK-GFP (Homo sapiens, UniProt Q06187+Q96SW2)
Construct: the BTK open reading frame (ORF) was first shuttled from a pcDNA-DEST40-BTK vector (Invitrogen library ID INV_20090504v1); expressed in transfected cells; host or cells: HEK293A cells (Invitrogen R70507), lentiviral transduction with pLenti6-BTK-GFP-Ires-RFP, blasticidin-selected
Sequence (Q06187 whole entry): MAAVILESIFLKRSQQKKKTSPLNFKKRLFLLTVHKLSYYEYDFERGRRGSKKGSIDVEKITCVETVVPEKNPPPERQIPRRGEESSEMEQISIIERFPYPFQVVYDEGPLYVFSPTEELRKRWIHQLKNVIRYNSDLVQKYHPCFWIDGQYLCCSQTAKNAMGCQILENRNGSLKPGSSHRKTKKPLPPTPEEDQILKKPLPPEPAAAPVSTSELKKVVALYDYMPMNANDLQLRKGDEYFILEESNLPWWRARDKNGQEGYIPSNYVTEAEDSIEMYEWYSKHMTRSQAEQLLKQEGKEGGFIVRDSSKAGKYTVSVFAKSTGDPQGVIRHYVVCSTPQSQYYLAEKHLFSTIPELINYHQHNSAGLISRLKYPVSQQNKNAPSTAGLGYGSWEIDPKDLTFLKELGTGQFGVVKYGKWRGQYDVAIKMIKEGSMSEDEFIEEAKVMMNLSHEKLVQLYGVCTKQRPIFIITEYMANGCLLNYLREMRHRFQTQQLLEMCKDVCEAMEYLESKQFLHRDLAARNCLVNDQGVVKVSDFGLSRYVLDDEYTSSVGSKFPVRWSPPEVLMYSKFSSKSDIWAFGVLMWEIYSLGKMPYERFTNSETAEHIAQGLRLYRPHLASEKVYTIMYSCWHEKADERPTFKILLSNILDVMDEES
Sequence (Q96SW2 whole entry): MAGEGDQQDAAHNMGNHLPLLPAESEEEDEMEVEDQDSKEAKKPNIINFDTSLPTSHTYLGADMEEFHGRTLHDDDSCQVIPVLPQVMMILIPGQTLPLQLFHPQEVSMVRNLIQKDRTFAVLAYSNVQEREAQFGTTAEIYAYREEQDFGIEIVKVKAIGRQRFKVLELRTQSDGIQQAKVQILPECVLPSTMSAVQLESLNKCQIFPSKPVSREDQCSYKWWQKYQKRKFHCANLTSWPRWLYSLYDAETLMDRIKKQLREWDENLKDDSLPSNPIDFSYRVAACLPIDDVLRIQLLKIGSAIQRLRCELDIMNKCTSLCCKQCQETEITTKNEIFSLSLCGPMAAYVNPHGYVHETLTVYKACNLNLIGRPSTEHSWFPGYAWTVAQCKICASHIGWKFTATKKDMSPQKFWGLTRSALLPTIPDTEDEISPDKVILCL
Sequence (Q16531 whole entry partner): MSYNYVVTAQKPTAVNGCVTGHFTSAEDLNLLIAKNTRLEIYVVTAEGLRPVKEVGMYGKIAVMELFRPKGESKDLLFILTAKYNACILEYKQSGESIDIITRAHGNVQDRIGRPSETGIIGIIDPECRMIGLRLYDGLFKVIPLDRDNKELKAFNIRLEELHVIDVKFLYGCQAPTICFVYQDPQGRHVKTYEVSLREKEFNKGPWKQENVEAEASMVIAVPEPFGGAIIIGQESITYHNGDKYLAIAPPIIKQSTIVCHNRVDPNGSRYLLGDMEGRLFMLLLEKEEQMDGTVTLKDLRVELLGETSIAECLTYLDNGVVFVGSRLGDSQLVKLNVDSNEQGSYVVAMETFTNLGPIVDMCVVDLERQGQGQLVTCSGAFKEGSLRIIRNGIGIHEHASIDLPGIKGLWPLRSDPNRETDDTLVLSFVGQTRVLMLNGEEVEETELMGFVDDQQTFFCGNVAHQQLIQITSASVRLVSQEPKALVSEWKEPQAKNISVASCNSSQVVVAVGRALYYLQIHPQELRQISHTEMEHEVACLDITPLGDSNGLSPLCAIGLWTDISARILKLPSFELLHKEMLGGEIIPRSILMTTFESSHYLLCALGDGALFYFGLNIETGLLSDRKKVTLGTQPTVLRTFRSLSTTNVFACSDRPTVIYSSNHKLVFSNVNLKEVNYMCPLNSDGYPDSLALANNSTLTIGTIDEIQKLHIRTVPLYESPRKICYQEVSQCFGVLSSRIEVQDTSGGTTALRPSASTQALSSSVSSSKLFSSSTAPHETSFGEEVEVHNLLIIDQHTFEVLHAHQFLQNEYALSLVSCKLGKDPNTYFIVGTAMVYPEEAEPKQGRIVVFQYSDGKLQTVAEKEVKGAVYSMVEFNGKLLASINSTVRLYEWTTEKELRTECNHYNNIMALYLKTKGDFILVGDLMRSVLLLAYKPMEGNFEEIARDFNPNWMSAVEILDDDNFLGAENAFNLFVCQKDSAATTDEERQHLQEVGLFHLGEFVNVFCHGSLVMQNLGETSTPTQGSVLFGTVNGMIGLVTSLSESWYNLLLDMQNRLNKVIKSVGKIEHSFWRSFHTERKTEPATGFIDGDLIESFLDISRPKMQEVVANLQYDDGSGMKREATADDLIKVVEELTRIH
run description: BTK-GFP protein abundance flow cytometry assay in HEK293A cells
Type: cell-based
measurement context: 24 h, concentration at which 50% maximal degradation was observed
DC50 for assorted compounds
Record the value in nM, omitting the unit from your answer.

compound: COc1ccc(C(=O)N2CCC(CCN3CCC(OCc4ccc(-c5cc6c(-c7cc(F)cc(NC(=O)N8CC(O)C(CC(C)C)C8)c7C)ncnc6[nH]5)cc4)CC3)CC2)cc1N1CCC(=O)NC1=O (racemic)
study target: BTK-GFP (Homo sapiens, UniProt Q06187+Q96SW2)
DC50 [nM]: 1.5
//
compound: COc1ccc(C(=O)N2CCC3(CCN(CCc4ccc(-c5cc6c(-c7cc(F)cc(NC(=O)N8C[C@@H](CC(C)C)[C@H](O)C8)c7C)ncnc6[nH]5)cc4)CC3)CC2)cc1N1CCC(=O)NC1=O
study target: BTK-GFP (Homo sapiens, UniProt Q06187+Q96SW2)
DC50 [nM]: 85.5
//
compound: COc1ccc(C(=O)N2CCC(CN3CCN(Cc4ccc(-c5cc6c(-c7cc(F)cc(NC(=O)N8C[C@H](CC(C)C)[C@@H](O)C8)c7C)ncnc6[nH]5)cc4)CC3)CC2)cc1N1CCC(=O)NC1=O
study target: BTK-GFP (Homo sapiens, UniProt Q06187+Q96SW2)
DC50 [nM]: 0.7

What does the record list as DC50 for "COc1ccc(C(=O)N2CCC3(CCN(CCc4ccc(-c5cc6c(-c7cc(F)cc(NC(=O)N8C[C@@H](CC(C)C)[C@@H](O)C8)c7C)ncnc6[nH]5)cc4)CC3)CC2)cc1N1CCC(=O)NC1=O" ? 1.5

The measurements presented in this section are drawn from patent US11541056B2.
